Below are IC50 values recorded for human AChE (Homo sapiens).
PROPERTY MEASURED: IC50

| COMPOUND | VALUE MEASURED |
| --- | --- |
| Brc1ccc(N2N=C(c3ccsc3)CC2c2ccc(N3CCOCC3)cc2)cc1 (stereo not shown) | > 1000 µM |
| Cc1ccc(N2N=C(c3ccsc3)CC2c2ccc(N3CCOCC3)cc2)cc1 (stereo not shown) | > 100 µM |
| c1ccc(N2N=C(c3ccsc3)CC2c2ccc(N3CCOCC3)cc2)cc1 (stereo not shown) | 0.107 µM |
| Clc1cccc(N2N=C(c3ccsc3)CC2c2ccc(N3CCOCC3)cc2)c1 (stereo not shown) | 0.062 µM |
| Fc1ccc(N2N=C(c3ccsc3)CC2c2ccc(N3CCOCC3)cc2)cc1 (stereo not shown) | > 100 µM |
| Clc1ccc(N2N=C(c3ccsc3)CC2c2ccc(N3CCOCC3)cc2)cc1 (stereo not shown) | 0.122 µM |
| COc1ccc(N2N=C(c3ccsc3)CC2c2ccc(N3CCOCC3)cc2)cc1 (stereo not shown) | > 100 µM |
| CS(=O)(=O)c1ccc(N2N=C(c3ccsc3)CC2c2ccc(N3CCOCC3)cc2)cc1 (stereo not shown) | > 1000 µM |
| O=C(C=Cc1ccc(N2CCOCC2)cc1)c1ccsc1 | > 100 µM |
| N#Cc1ccc(N2N=C(c3ccsc3)CC2c2ccc(N3CCOCC3)cc2)cc1 (stereo not shown) | > 100 µM |
| O=[N+]([O-])c1cccc(N2N=C(c3ccsc3)CC2c2ccc(N3CCOCC3)cc2)c1 (stereo not shown) | 0.04 µM |
| Fc1cccc(N2N=C(c3ccsc3)CC2c2ccc(N3CCOCC3)cc2)c1 (stereo not shown) | > 100 µM |
| Brc1cccc(N2N=C(c3ccsc3)CC2c2ccc(N3CCOCC3)cc2)c1 (stereo not shown) | > 1000 µM |

----------
Below is a list of entries, each paired with its recorded inhibition at 10 µM value.
biological target: human AChE (Homo sapiens, UniProt P22303); assay: AChE inhibition, modified Ellman spectrophotometric method; type: biochemical; conditions: read-out: human AChE inhibition %
Sequence (P22303 32-614): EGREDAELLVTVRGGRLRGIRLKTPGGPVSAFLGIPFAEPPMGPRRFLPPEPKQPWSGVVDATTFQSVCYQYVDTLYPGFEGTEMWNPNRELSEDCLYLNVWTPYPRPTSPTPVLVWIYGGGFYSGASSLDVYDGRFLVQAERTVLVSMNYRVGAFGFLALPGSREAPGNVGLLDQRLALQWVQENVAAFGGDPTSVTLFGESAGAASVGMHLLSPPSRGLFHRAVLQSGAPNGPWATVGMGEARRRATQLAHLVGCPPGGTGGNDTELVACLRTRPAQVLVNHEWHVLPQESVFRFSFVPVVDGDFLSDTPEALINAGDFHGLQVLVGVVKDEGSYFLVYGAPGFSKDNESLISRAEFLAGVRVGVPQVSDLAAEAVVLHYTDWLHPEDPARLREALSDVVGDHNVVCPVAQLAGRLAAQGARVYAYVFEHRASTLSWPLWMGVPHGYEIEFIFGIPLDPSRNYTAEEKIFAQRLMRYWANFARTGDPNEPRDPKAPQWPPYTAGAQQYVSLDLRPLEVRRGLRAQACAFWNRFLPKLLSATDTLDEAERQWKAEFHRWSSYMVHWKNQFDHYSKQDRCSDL
PROPERTY MEASURED: inhibition at 10 µM (%)

| COMPOUND | UNITS TEXT | VALUE MEASURED |
| --- | --- | --- |
| Clc1cccc(N2N=C(c3ccsc3)CC2c2ccc(N3CCOCC3)cc2)c1 (stereo not shown) [Compound 2j] | % | 80.2 |
| O=[N+]([O-])c1cccc(N2N=C(c3ccsc3)CC2c2ccc(N3CCOCC3)cc2)c1 (stereo not shown) [Compound 2l] | % | 82.6 |
| Clc1ccc(N2N=C(c3ccsc3)CC2c2ccc(N3CCOCC3)cc2)cc1 (stereo not shown) [Compound 2g] | % | 82.4 |
| c1ccc(N2N=C(c3ccsc3)CC2c2ccc(N3CCOCC3)cc2)cc1 (stereo not shown) [Compound 2a] | % | 84.8 |

----------
molecular target: human BuChE (Homo sapiens, UniProt P06276); test: biochemical; settings: read-out: human BuChE inhibition%
Sequence (P06276 29-602): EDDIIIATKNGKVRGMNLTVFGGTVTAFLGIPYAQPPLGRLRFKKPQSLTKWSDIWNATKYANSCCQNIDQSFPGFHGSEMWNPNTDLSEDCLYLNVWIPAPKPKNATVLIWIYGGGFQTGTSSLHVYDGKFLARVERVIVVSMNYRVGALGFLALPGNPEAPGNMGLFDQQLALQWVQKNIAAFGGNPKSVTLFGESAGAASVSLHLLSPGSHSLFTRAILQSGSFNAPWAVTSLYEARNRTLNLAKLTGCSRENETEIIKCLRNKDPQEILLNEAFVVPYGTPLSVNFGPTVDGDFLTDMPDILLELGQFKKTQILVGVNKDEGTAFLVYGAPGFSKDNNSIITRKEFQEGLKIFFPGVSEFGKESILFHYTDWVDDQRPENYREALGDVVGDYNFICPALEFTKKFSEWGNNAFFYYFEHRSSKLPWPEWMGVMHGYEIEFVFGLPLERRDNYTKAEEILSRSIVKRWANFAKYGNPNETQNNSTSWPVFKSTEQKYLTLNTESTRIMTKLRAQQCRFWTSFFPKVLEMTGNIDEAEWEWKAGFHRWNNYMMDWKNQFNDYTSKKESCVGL

| COMPOUND | inhibition at 100 µM / % |
| --- | --- |
| Clc1cccc(N2N=C(c3ccsc3)CC2c2ccc(N3CCOCC3)cc2)c1 (stereo not shown) | 24.9 |
| Fc1cccc(N2N=C(c3ccsc3)CC2c2ccc(N3CCOCC3)cc2)c1 (stereo not shown) | 27.4 |
| Fc1ccc(N2N=C(c3ccsc3)CC2c2ccc(N3CCOCC3)cc2)cc1 (stereo not shown) | 21.9 |
| Brc1ccc(N2N=C(c3ccsc3)CC2c2ccc(N3CCOCC3)cc2)cc1 (stereo not shown) | 26.2 |
| O=[N+]([O-])c1cccc(N2N=C(c3ccsc3)CC2c2ccc(N3CCOCC3)cc2)c1 (stereo not shown) | 19.3 |
| O=C(C=Cc1ccc(N2CCOCC2)cc1)c1ccsc1 | 21.3 |
| N#Cc1ccc(N2N=C(c3ccsc3)CC2c2ccc(N3CCOCC3)cc2)cc1 (stereo not shown) | 23.4 |
| CS(=O)(=O)c1ccc(N2N=C(c3ccsc3)CC2c2ccc(N3CCOCC3)cc2)cc1 (stereo not shown) | 15.1 |
| Brc1cccc(N2N=C(c3ccsc3)CC2c2ccc(N3CCOCC3)cc2)c1 (stereo not shown) | 17.6 |
| c1ccc(N2N=C(c3ccsc3)CC2c2ccc(N3CCOCC3)cc2)cc1 (stereo not shown) | 18.1 |
| Cc1ccc(N2N=C(c3ccsc3)CC2c2ccc(N3CCOCC3)cc2)cc1 (stereo not shown) | 20.6 |
| Clc1ccc(N2N=C(c3ccsc3)CC2c2ccc(N3CCOCC3)cc2)cc1 (stereo not shown) | 20.8 |
| COc1ccc(N2N=C(c3ccsc3)CC2c2ccc(N3CCOCC3)cc2)cc1 (stereo not shown) | 21.1 |
